Catalogue of Binding (% of w.t.) values
# TARGET OR SYSTEM: T1, biotinylated huIL-23R-IgG (human, UniProt Q5VWK5 24-353, biotinylated)
# T1 construct: not shown: human IgG1 Fc
# T1 sequence: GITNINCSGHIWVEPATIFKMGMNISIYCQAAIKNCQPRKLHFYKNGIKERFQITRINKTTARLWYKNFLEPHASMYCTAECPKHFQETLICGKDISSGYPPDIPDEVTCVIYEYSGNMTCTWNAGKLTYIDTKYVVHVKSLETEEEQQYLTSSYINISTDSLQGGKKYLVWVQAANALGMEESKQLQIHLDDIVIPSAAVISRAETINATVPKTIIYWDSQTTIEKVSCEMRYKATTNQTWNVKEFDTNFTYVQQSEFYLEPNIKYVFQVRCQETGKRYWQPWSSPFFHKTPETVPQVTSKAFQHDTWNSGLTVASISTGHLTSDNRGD
# ASSAY EXPLANATION: ECL binding assay, periplasmic Fab extracts, biotinylated huIL-23R-IgG; AUC vs parental 8B10 Fab

1) chimeric 8B10 Fab, VL E93A (Fab, V domains shown, Rat V domains with human CH1 and CL; E. coli periplasmic extract) VH: EVKLVESGGGLEQPKGSLKLSCTVSGFDFNSYGMSWVRQAPGKGLDLVADINSKSYNYATYYADSVKDRFTISRDDSQSMVYLEMDNLKTEDTALYYCTVHHSDYFEYWGQGVMVTVSS VL: DIQMTQSPASLSASLGETVSIECLASEDIYNNLAWYQQKPGKSPQLLIYHASSLQDGVPSRFSGSGSGTQYSLKINSLESEDAATYFCLQDSAYPPTFGGGTKLELKR    62.8 % of w.t.
2) chimeric 8B10 Fab, VL N31A (Fab, V domains shown, Rat V domains with human CH1 and CL; E. coli periplasmic extract) VH: EVKLVESGGGLEQPKGSLKLSCTVSGFDFNSYGMSWVRQAPGKGLDLVADINSKSYNYATYYADSVKDRFTISRDDSQSMVYLEMDNLKTEDTALYYCTVHHSDYFEYWGQGVMVTVSS VL: DIQMTQSPASLSASLGETVSIECLASEDIYANLAWYQQKPGKSPQLLIYHASSLQDGVPSRFSGSGSGTQYSLKINSLESEDAATYFCLQDSEYPPTFGGGTKLELKR    117 % of w.t.

From here, focus on the item given below.
May I ask what Binding (% of w.t.) has been recorded for chimeric 8B10 Fab, VH I51A (Fab, V domains shown, Rat V domains with human CH1 and CL; E. coli periplasmic extract) VH: EVKLVESGGGLEQPKGSLKLSCTVSGFDFNSYGMSWVRQAPGKGLDLVADANSKSYNYATYYADSVKDRFTISRDDSQSMVYLEMDNLKTEDTALYYCTVHHSDYFEYWGQGVMVTVSS VL: DIQMTQSPASLSASLGETVSIECLASEDIYNNLAWYQQKPGKSPQLLIYHASSLQDGVPSRFSGSGSGTQYSLKINSLESEDAATYFCLQDSEYPPTFGGGTKLELKR ? 123 % of w.t.
